Please provide measured isoTOP-ABPP ratio (R) at liganded lysine P17858_K315 for the entries that follow.
# EXPERIMENTAL_SYSTEM: PFKL 6-phosphofructokinase, liver type (Homo sapiens, UniProt P17858)
# Construct: isoTOP-ABPP experiments performed in cell lysates (in vitro); endogenous in cells; host or cells: soluble proteome of human cancer cell lines (MDA-MB-231; Ramos and Jurkat also prepared)
# Sequence (P17858 whole entry): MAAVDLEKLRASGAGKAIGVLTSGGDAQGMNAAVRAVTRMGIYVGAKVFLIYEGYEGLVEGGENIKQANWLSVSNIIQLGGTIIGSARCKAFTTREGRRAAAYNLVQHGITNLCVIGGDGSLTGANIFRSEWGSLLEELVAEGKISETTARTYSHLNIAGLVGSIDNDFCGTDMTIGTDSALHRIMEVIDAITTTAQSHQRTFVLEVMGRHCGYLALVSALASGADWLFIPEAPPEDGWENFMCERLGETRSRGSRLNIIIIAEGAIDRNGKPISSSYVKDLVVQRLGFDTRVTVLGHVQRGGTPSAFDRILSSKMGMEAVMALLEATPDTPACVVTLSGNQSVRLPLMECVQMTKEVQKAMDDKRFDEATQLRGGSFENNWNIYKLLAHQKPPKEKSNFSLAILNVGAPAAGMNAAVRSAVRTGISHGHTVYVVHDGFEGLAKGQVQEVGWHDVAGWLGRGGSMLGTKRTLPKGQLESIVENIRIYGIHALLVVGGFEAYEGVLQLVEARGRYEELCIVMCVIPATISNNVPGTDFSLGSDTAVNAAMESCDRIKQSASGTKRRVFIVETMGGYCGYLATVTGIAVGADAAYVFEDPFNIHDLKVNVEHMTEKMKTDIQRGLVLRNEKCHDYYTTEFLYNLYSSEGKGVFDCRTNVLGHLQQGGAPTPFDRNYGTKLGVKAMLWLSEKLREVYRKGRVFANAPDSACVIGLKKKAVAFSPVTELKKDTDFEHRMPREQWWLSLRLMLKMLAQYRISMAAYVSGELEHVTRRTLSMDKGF
# EXPERIMENT_NOTES: competitive isoTOP-ABPP
# Assay type: binding
# APPLIED_CONDITIONS: 50 uM, in vitro, sol, 231

The examples below pair each entry with its known result.
O=C(Oc1ccc([N+](=O)[O-])cc1[N+](=O)[O-])c1ccc(-c2ccccc2)cc1 ... 1.3
CC(C)(C)OC(=O)NCCCC(=O)Oc1ccc([N+](=O)[O-])cc1[N+](=O)[O-] ... 2.3

Hi, could you look up isoTOP-ABPP ratio (R) at liganded lysine P17858_K315 for each item in my list?
1. O=C(CC12CC3CC(CC(C3)C1)C2)Oc1ccc([N+](=O)[O-])cc1[N+](=O)[O-]
2. O=C(Oc1ccc([N+](=O)[O-])cc1[N+](=O)[O-])C(c1ccccc1)(c1ccccc1)c1ccccc1 [fragment 42, 2,4-Dinitrophenyl 2,2,2-triphenylacetate]

output:
[0.4, 0.7]

====

Exercise: for every item that follows, state its recorded isoTOP-ABPP ratio (R) at liganded lysine P51580_K32.
# EXPERIMENTAL_SYSTEM: TPMT Thiopurine S-methyltransferase (Homo sapiens, UniProt P51580)
# Construct: isoTOP-ABPP experiments performed in cell lysates (in vitro); endogenous in cells; host or cells: soluble proteome of human cancer cell lines (MDA-MB-231; Ramos and Jurkat also prepared)
# Sequence (P51580 1-245): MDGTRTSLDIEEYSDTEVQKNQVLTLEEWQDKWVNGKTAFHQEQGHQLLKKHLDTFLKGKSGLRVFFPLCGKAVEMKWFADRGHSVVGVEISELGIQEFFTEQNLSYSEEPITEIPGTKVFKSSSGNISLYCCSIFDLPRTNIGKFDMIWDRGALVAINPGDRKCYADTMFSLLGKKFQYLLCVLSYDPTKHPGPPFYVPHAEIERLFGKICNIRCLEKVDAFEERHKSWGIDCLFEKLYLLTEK
# EXPERIMENT_NOTES: competitive isoTOP-ABPP
# Type: binding
# APPLIED_CONDITIONS: 50 uM, in vitro, sol, 231
Answers are plain numbers.

O=C(Oc1ccc([N+](=O)[O-])cc1[N+](=O)[O-])c1ccc(-c2ccccc2)cc1 ... 1.5
O=C(Oc1ccc([N+](=O)[O-])cc1[N+](=O)[O-])C(c1ccccc1)(c1ccccc1)c1ccccc1 [fragment 42, 2,4-Dinitrophenyl 2,2,2-triphenylacetate] ... 0.9
CC(=O)Oc1ccc([N+](=O)[O-])cc1[N+](=O)[O-] [fragment 43, 2,4-Dinitrophenyl acetate] ... 1.5
O=C(Oc1ccc([N+](=O)[O-])cc1[N+](=O)[O-])c1ccc(Oc2ccccc2)cc1 [fragment 39, 2,4-Dinitrophenyl 4-phenoxybenzoate] ... 1.0
O=C(CC12CC3CC(CC(C3)C1)C2)Oc1ccc([N+](=O)[O-])cc1[N+](=O)[O-] ... 1.1

Please go through the list and note isoTOP-ABPP ratio (R) at liganded lysine P51580_K32 for each molecule.
1. O=C(CCc1coc2cc(F)ccc2c1=O)Oc1ccc([N+](=O)[O-])cc1[N+](=O)[O-]
2. O=C(Oc1ccc([N+](=O)[O-])cc1[N+](=O)[O-])c1ccccc1Nc1cccc(C(F)(F)F)c1
3. CC(C)(C)OC(=O)NCCCC(=O)Oc1ccc([N+](=O)[O-])cc1[N+](=O)[O-]
4. O=C(Oc1ccc([N+](=O)[O-])cc1[N+](=O)[O-])C1CCN(C(=O)OCc2ccccc2)CC1

output:
3.4
1.1
1.5
1.6
